The reported numbers originate from patent US6140368A.

Reported remaining activity at 10 µM values for a set of compounds
Biological target: HIV reverse transcriptase (Human immunodeficiency virus type 1 group M subtype B)
Assay: Reverse transcriptase scintillation proximity assay (Example 4, Table 2)
Assay type: biochemical
Settings: 0.05 h, 10 μM inhibitor; relative to dimethyl sulfoxide = 100%; read-out: % RT activity remaining at 10 μM
# number only, unit % dropped from output

Consider the following illustrative entries.
COc1ccc(N=Nc2c(S(=O)(=O)O)cc3cc(NC(=O)Nc4ccc5c(O)c(N=Nc6ccc(OC)nc6OC)c(S(=O)(=O)O)cc5c4)ccc3c2O)c(OC)n1 [Compound 40] | 31
O=C(Nc1ccc2ccc(S(=O)(=O)O)cc2c1)Nc1ccc2c(O)cc(S(=O)(=O)O)cc2c1 [Compound 7] | 78

Input line: Requested field: remaining activity at 10 µM. Item: O=C(Nc1ccc2c(O)c(N=Nc3ccc4oc(=O)ccc4c3)c(S(=O)(=O)O)cc2c1)Nc1ccc2c(O)c(N=Nc3ccc4oc(=O)ccc4c3)c(S(=O)(=O)O)cc2c1 [Compound 59]
Output line: 2

Input line: Can you handle O=C(Nc1ccc2c(O)cc(S(=O)(=O)O)cc2c1)Nc1ccc2cc(S(=O)(=O)O)cc(O)c2c1 [Compound 9] next?
Output line: 75

Input line: Input O=C(O)Cc1ccc(N=Nc2c(S(=O)(=O)O)cc3cc(NC(=O)c4ccc(C(=O)Nc5ccc6c(O)c(N=Nc7ccc(CC(=O)O)cc7)c(S(=O)(=O)O)cc6c5)cc4)ccc3c2O)cc1 [Compound 163]
Output line: 0.1

Input line: Likewise for O=C(Nc1ccc2c(O)c(N=Nc3cc(C(=O)O)cc(C(=O)O)c3)c(S(=O)(=O)O)cc2c1)Nc1ccc2c(O)c(N=Nc3cc(C(=O)O)cc(C(=O)O)c3)c(S(=O)(=O)O)cc2c1 [Compound 51] ?
Output line: 1.1

Input line: Same again, this time with Cc1ccc(CO)cc1N=Nc1c(S(=O)(=O)O)cc2cc(NC(=O)Nc3ccc4c(O)c(N=Nc5cc(CO)ccc5C)c(S(=O)(=O)O)cc4c3)ccc2c1O [Compound 55]
Output line: 24

Input line: Also need O=C(O)CCc1ccc(N=Nc2c(S(=O)(=O)O)cc3cc(NC(=O)c4cc(=O)cc(C(=O)Nc5ccc6c(O)c(N=Nc7ccc(CCC(=O)O)cc7)c(S(=O)(=O)O)cc6c5)o4)ccc3c2O)cc1 [Compound 134] , thanks.
Output line: 0.25

Input line: Try this compound too: O=C(O)CCCc1ccc(N=Nc2c(S(=O)(=O)O)cc3cc(NC(=O)c4ccc(C(=O)Nc5ccc6c(O)c(N=Nc7ccc(CCCC(=O)O)cc7)c(S(=O)(=O)O)cc6c5)cc4)ccc3c2O)cc1 [Compound 165]
Output line: 3.7

Input line: What about COC(=O)c1cc(NC(=O)Nc2ccc3c4c(cccc24)C(=O)OC3=O)cc(C(=O)OC)c1 [Compound 83] ?
Output line: 77

Input line: Try O=C(O)CCc1ccc(N=Nc2c(S(=O)(=O)O)cc3cc(NC(=O)c4ccc(C(=O)Nc5ccc6c(O)c(N=Nc7ccc(CCC(=O)O)cc7)c(S(=O)(=O)O)cc6c5)cc4)ccc3c2O)cc1 [Compound 164] next.
Output line: 0.15

----------
Entries annotated with measured log10(IC50)
Target: UniProt P04585
Assay: biochemical
Settings: read-out: Inhibition of 3' processing activity (IC50)
Hello, just confirming the data are log10 of IC50 with units of nM.

In the examples that follow, each entry is paired with its recorded log10(IC50).
O=C(O)/C=C/c1ccc(N=Nc2c(S(=O)(=O)O)cc3cc(NC(=O)Nc4ccc5c(O)c(N=Nc6ccc(/C=C/C(=O)O)cc6)c(S(=O)(=O)O)cc5c4)ccc3c2O)cc1 [Compound 5] | 2.95
O=C(Nc1ccc2c(O)c(N=Nc3ccccc3)c(S(=O)(=O)O)cc2c1)Nc1ccc2c(O)c(N=Nc3ccccc3)c(S(=O)(=O)O)cc2c1 [Compound 4, calcomine orange, reference compound] | 3.30
O=C(Nc1ccc2c(O)cc(S(=O)(=O)O)cc2c1)Nc1ccc2c(O)cc(S(=O)(=O)O)cc2c1 [Compound 1, carbonyl-J] | 3.40
O=C(Nc1ccc2c(O)c(N=Nc3ccc(I)cc3)c(S(=O)(=O)O)cc2c1)Nc1ccc2c(O)c(N=Nc3ccc(I)cc3)c(S(=O)(=O)O)cc2c1 [Compound 71] | 2.95
O=C(Nc1ccc2c(O)c(N=Nc3cccc(C(=O)O)c3)c(S(=O)(=O)O)cc2c1)Nc1ccc2c(O)c(N=Nc3cccc(C(=O)O)c3)c(S(=O)(=O)O)cc2c1 [Compound 58] | 2.30

Input line: Which value of log10(IC50) has been reported for CC(=O)Nc1ccc(N=Nc2c(S(=O)(=O)O)cc3cc(NC(=O)Nc4ccc5c(O)c(N=Nc6ccc(NC(C)=O)cc6)c(S(=O)(=O)O)cc5c4)ccc3c2O)cc1 [Compound 72] in the records?
Output line: 3.00

Input line: Query COc1cc(C(=O)O)ccc1N=Nc1c(S(=O)(=O)O)cc2cc(NC(=O)Nc3ccc4c(O)c(N=Nc5ccc(C(=O)O)cc5OC)c(S(=O)(=O)O)cc4c3)ccc2c1O [Compound 54] next
Output line: 3.60

Input line: What about this compound? COc1cc(C(=O)O)c(N=Nc2c(S(=O)(=O)O)cc3cc(NC(=O)C(=O)Nc4ccc5c(O)c(N=Nc6c(C(=O)O)cc(OC)c(OC)c6OC)c(S(=O)(=O)O)cc5c4)ccc3c2O)c(OC)c1OC [Compound 102]
Output line: 2.78

Input line: // same read-out, input: COc1cc(C(=O)O)c(N=Nc2c(S(=O)(=O)O)cc3cc(NC(=O)Nc4ccc5c(O)c(N=Nc6c(C(=O)O)cc(OC)c(OC)c6OC)c(S(=O)(=O)O)cc5c4)ccc3c2O)c(OC)c1OC [Compound 50]
Output line: 3.30

Input line: Same again, this time with O=C(Nc1ccc2c(O)c(N=Nc3c(Cl)cc(C(=O)O)cc3Cl)c(S(=O)(=O)O)cc2c1)Nc1ccc2c(O)c(N=Nc3c(Cl)cc(C(=O)O)cc3Cl)c(S(=O)(=O)O)cc2c1 [Compound 52]
Output line: 2.30

Input line: Try the compound COc1ccc(N=Nc2c(S(=O)(=O)O)cc3cc(NC(=O)Nc4ccc5c(O)c(N=Nc6ccc(OC)cc6)c(S(=O)(=O)O)cc5c4)ccc3c2O)cc1 [Compound 73]
Output line: 3.00

Input line: Another compound to look at: COc1ccc(N=Nc2c(S(=O)(=O)O)cc3cc(NC(=O)Nc4ccc5c(O)c(N=Nc6ccc(OC)c(OC)c6)c(S(=O)(=O)O)cc5c4)ccc3c2O)cc1OC [Compound 39]
Output line: 3.30

Input line: Moving on to O=C(O)CCC(NC(=O)c1ccc(N=Nc2c(S(=O)(=O)O)cc3cc(NC(=O)C(=O)Nc4ccc5c(O)c(N=Nc6ccc(C(=O)NC(CCC(=O)O)C(=O)O)cc6)c(S(=O)(=O)O)cc5c4)ccc3c2O)cc1)C(=O)O (centres unmarked) [Compound 107]
Output line: 2.85

Input line: Note, next up: O=C(Nc1ccc2c(O)c(N=Nc3cccc4c(=O)[nH][nH]c(=O)c34)c(S(=O)(=O)O)cc2c1)Nc1ccc2c(O)c(N=Nc3cccc4c(=O)[nH][nH]c(=O)c34)c(S(=O)(=O)O)cc2c1 [Compound 49]
Output line: 3.30

Input line: // same read-out, input: COc1cc(N=Nc2c(S(=O)(=O)O)cc3cc(NC(=O)C(=O)Nc4ccc5c(O)c(N=Nc6cc(OC)c(OC)c(OC)c6)c(S(=O)(=O)O)cc5c4)ccc3c2O)cc(OC)c1OC [Compound 110]
Output line: 3.04

Input line: Also, O=C(Nc1ccc2c(O)c(N=Nc3cc(C(=O)O)ccc3C(=O)O)c(S(=O)(=O)O)cc2c1)Nc1ccc2c(O)c(N=Nc3cc(C(=O)O)ccc3C(=O)O)c(S(=O)(=O)O)cc2c1 [Compound 35] please.
Output line: 2.90
